The following molecules were reported with pIC50 values on Rho-associated protein kinase 1 (Homo sapiens, UniProt Q13464) in different studies.
One number for each entry, as −log10 of the molar value.

Known results for molecules:
Molecule	pIC50
CC(O)c1cc(C(=O)N[C@H](C)c2c(F)cccc2F)ccc1-c1cn[nH]c1 (stereo partly shown)	5.94
O=C(Nc1ccnnc1)c1c[nH]c2ccc(-c3nccc(Nc4ccc5[nH]ncc5c4)n3)cc12	5.60
N[C@@H](C(=O)Nc1ccc(-c2ccncc2)cc1)c1ccccc1	7.85

Return reported pIC50 values for all items listed beneath this line.
1. COc1cc(C(=O)N[C@H]2C[C@@H]2c2ccccc2)ccc1-c1cn[nH]c1 (racemic)
2. COc1ccc(F)c(C(C)NC(=O)c2ccc(-c3cn[nH]c3)c(C(C)O)c2)c1 (stereo not shown)
3. COc1cc(NC(=O)[C@H](N)Cc2ccc(-c3ccccc3)cc2)ccc1-c1cn[nH]c1
4. COc1cc(C(=O)N[C@@H](c2c(F)cccc2F)C(O)CO)ccc1-c1cn[nH]c1 (stereo partly shown)

1. 7.52
2. 7.09
3. 7.17
4. 7.46

====

pIC50: −log10 of the molar value.
The following molecules were reported with pIC50 values on UniProt:Q13464 in different studies.

Known results for molecules:
Cc1cncc2cccc(S(=O)(=O)N3CC[C@H](NCC#N)C3)c12 5.52 to 6.00
COc1cc(-n2nc(Nc3ccc4[nH]ncc4c3Cl)c3ccccc32)ccc1OCC(=O)NC(C)C 5.00 to 5.52

Turning to the following molecule.
Consider the molecule O=C(NCc1ccn[nH]1)N1CCc2cc(-c3cn[nH]c3)ccc21 . State its measured pIC50.
5.30 to 6.30

====

The following molecules were reported with IC50 values on Rho-associated protein kinase 1 (Homo sapiens) in different studies.

Known results for molecules:
Molecule	Quantity measured	Reading
Cc1cncc2cccc(S(=O)(=O)N3CC[C@H](NCc4ccccc4)C3)c12	IC50	< 1 µM
O=C(OC1CC(F)(F)C1)N1CCc2cc(-c3nccc(Nc4ccc5c(=O)[nH]ccc5c4)n3)ccc2C1	IC50	> 10 µM
Cn1cc(C(=O)Nc2cccc(-c3nnc(Nc4ccc5[nH]ncc5c4)o3)c2)cn1	IC50	< 0.3 µM

Return reported IC50 values for all items listed beneath this line.
1. COc1cc(-c2nnc(Nc3ccc4[nH]ncc4c3Cl)o2)ccc1OCC(=O)NC(C)C
2. Cn1c(C(=O)N2CC(C(F)F)C2)cc2c1CN(c1nccc(Nc3ccc(-c4cn[nH]c4)cc3)n1)CC2
3. Fc1cc(Nc2ccnc(-c3ccc4cc(-c5nccs5)[nH]c4c3)n2)ccc1-c1cn[nH]c1

0.3 to 3 µM
> 4.5 µM
> 10 µM

Return reported IC50 values for all items listed beneath this line.
1. COc1cc(F)cc(CNC(=O)N2CCc3cc(-c4cn[nH]c4)c(C#N)cc32)c1
2. O=C(NC1CCOC1)c1cc2ccc(-c3nc(Nc4ccc(-c5cn[nH]c5)cc4)c4sccc4n3)cc2[nH]1 (centres unmarked)

1. 0.5 to 5 µM
2. > 10 µM

====

The following compounds were reported with IC50 values on Rho-associated protein kinase 1 (Homo sapiens, UniProt Q13464) in different studies.

Known results for compounds:
N#CC1CN(C(=O)c2cc3ccc(-c4nccc(Nc5ccc(-c6cn[nH]c6)cc5)n4)cc3[nH]2)C1 > 10000 nM
CCNC(=O)N1Cc2ccc(-c3nccc(Nc4ccc(-c5cn[nH]c5)cc4)n3)cc2C1 > 10000 nM
Cn1cc(C(=O)Nc2cccc(-n3nc(Nc4ccc5[nH]ncc5c4Cl)c4ccncc43)c2)cn1 > 10000 nM
COc1cc(F)cc(CNC(=O)N2CCc3cc(-c4c[nH]nc4N)c(F)cc32)c1 50 to 500 nM
O=C(COc1cc(F)cc([C@@H](CO)NC(=O)N2CCc3cc(-c4cn[nH]c4)c(F)cc32)c1)NC1CC(F)(F)C1 ≤ 50 nM

Return reported IC50 values for all items listed beneath this line.
1. COc1cc(F)cc(CNC(=O)c2cnn3cc(-c4cn[nH]c4)ccc23)c1
2. COc1cc(F)cc(CNC(=O)N2CCc3c2cc(F)c(-c2cn[nH]c2)c3F)c1

1: ≤ 50 nM; 2: ≤ 50 nM
